Target Desc: Cyclin-dependent kinase 5/CDK5 activator 1 (Homo sapiens, UniProt Q00535)
Sequence (Q00535 whole entry): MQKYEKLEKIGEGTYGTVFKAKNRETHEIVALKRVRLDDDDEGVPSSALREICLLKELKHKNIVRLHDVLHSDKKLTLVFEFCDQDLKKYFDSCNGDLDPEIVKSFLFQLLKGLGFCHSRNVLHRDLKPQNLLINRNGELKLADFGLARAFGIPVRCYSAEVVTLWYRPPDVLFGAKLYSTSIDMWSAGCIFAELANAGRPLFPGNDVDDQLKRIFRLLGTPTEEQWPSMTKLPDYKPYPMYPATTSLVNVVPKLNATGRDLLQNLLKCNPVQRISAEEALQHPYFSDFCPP
Sequence (Q15078 whole entry, further chain): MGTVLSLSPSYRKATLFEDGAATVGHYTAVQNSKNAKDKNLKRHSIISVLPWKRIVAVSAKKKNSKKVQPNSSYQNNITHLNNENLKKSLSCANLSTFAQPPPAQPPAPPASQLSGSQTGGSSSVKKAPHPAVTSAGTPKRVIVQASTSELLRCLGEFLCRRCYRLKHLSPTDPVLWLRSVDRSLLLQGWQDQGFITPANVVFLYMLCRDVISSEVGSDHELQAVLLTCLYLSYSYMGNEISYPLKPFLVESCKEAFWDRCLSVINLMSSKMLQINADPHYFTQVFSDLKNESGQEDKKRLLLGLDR
Protocol Summary: Inhibition of CDK5/p25 by scintillation proximity assay
pIC50: −log10 of the molar value.
Measurement Label: pIC50

CC(C)(C)C(=O)N1Cc2c(NC(=O)c3cc(F)cc(F)c3)n[nH]c2C1(C)C	6.85
CC(C)CC(=O)Nc1[nH]nc2c1CN(C(=O)C1CCN(C)CC1)C2(C)C	8.30

====

Target Desc: Proto-oncogene tyrosine-protein kinase receptor Ret (Homo sapiens, UniProt P07949)
Sequence (P07949 whole entry): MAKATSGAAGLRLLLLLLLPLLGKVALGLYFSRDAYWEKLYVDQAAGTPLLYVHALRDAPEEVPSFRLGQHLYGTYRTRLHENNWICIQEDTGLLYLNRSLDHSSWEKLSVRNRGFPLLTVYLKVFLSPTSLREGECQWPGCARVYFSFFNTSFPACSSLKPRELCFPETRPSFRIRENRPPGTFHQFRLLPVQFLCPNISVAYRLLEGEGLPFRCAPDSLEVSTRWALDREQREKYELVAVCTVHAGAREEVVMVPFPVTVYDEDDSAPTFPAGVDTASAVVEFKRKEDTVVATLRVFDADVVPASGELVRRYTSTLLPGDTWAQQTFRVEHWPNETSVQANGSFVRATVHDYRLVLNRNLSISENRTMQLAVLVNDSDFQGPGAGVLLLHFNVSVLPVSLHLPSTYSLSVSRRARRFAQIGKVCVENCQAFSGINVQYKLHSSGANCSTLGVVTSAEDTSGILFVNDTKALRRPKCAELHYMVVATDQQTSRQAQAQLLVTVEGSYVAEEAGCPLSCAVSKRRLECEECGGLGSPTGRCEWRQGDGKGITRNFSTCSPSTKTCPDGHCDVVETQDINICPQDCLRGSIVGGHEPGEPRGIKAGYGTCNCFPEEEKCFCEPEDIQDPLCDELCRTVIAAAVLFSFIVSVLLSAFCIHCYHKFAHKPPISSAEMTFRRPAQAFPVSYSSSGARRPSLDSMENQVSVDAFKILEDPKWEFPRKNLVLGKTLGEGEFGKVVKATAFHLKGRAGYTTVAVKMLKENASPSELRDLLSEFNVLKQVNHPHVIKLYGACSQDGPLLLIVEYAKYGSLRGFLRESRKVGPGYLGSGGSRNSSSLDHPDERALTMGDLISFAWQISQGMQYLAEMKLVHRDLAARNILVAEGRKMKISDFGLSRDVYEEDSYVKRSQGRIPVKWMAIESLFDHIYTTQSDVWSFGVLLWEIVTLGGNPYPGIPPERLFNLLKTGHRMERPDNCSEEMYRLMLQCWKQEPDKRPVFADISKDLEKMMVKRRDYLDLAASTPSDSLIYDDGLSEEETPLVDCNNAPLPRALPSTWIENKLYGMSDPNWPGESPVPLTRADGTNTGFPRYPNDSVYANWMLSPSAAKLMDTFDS
Measurement Label: IC50

CC(C)(C)C(=O)N1Cc2c(NC(=O)c3cc(F)cc(F)c3)n[nH]c2C1(C)C	> 10 µM
